Record form. Attribute: MIC. Fill in for each entry.
Tested on: Streptococcus Aronson
Assay Details: Serial dilution test
Type: cell-based
Condition Label: Streptococcus, 18-20 hours at 37° C., read-out: MIC, S.D.T., Streptococcus Aronson

{"Compound": "CCc1cc(C(=O)C(F)(F)F)c(O)c(Cc2c(O)c(CC)cc(C(=O)C(F)(F)F)c2O)c1O [R]", "MIC": "0.31 µg/mL"}

Batch: MIC for all items listed.
1. CC(C)CCc1cc(C(=O)C(F)(F)F)c(O)cc1O [G]
2. CCCCC(C)c1c(O)ccc(C(=O)C(F)(F)F)c1O (centres unmarked) [K]
3. COc1ccc(C(=O)C(F)(F)F)c(OC)c1 [D, 2,4-Dimethoxy-trifluoroacetophenone, reference compound]
4. CC(C)c1cc(C(=O)C(F)(F)F)c(O)c(Cc2c(O)c(C(=O)C(F)(F)F)cc(C(C)C)c2O)c1O [Compound Q]

Reply:
1. 1.25 µg/mL
2. 1.25 µg/mL
3. > 80 µg/mL
4. 1.25 µg/mL

====

Tested on: Streptococcus pyogenes At CC 86 68
Assay Details: Serial dilution test
Format: cell-based
Condition Label: Streptococcus pyogenes, ATCC8668, 18-20 hours at 37° C., read-out: MIC, S.D.T., Streptococcus pyogenes
Endpoint: log10(MIC) (log10 of the value in µg/mL)
Field: value | Transform: log10 | Quantity: MIC | Unit: µg/mL

{"Compound": "CC(C)CCc1cc(C(=O)C(F)(F)F)c(O)cc1O", "Target System": "Streptococcus pyogenes At CC 86 68", "log10(MIC)": -0.51}
{"Compound": "CCc1cc(C(=O)C(F)(F)F)c(O)c(Cc2c(O)c(CC)cc(C(=O)C(F)(F)F)c2O)c1O", "Target System": "Streptococcus pyogenes At CC 86 68", "log10(MIC)": -2.30}
{"Compound": "Cc1c(O)c(Cc2cc(C(=O)C(F)(F)F)c(O)c(C)c2O)cc(C(=O)C(F)(F)F)c1O", "Target System": "Streptococcus pyogenes At CC 86 68", "log10(MIC)": 0.10}
{"Compound": "CC(C)c1cc(C(=O)C(F)(F)F)c(O)c(Cc2c(O)c(C(=O)C(F)(F)F)cc(C(C)C)c2O)c1O", "Target System": "Streptococcus pyogenes At CC 86 68", "log10(MIC)": -3.00}
{"Compound": "O=C(c1ccc(O)c(C2CCCCCC2)c1O)C(F)(F)F", "Target System": "Streptococcus pyogenes At CC 86 68", "log10(MIC)": -1.10}
{"Compound": "CC1CCC(c2c(O)ccc(C(=O)C(F)(F)F)c2O)CC1 (stereo not drawn)", "Target System": "Streptococcus pyogenes At CC 86 68", "log10(MIC)": -0.51}
{"Compound": "CCc1c(O)ccc(C(=O)C(F)(F)F)c1O [C, reference compound]", "Target System": "Streptococcus pyogenes At CC 86 68", "log10(MIC)": 0.10}
{"Compound": "CCCCC(C)c1c(O)ccc(C(=O)C(F)(F)F)c1O (stereo not drawn)", "Target System": "Streptococcus pyogenes At CC 86 68", "log10(MIC)": -0.51}
{"Compound": "CC1CC(C)CC(c2cc(C(=O)C(F)(F)F)c(O)cc2O)C1 (stereo not drawn)", "Target System": "Streptococcus pyogenes At CC 86 68", "log10(MIC)": -0.51}
{"Compound": "CCCCCCCCC(C)c1c(O)ccc(C(=O)C(F)(F)F)c1O (stereo not drawn)", "Target System": "Streptococcus pyogenes At CC 86 68", "log10(MIC)": 0.10}

Batch: log10(MIC) for all items listed.
1. CCCCCCc1cc(C(=O)C(F)(F)F)c(O)cc1O
2. CC(C)c1c(O)ccc(C(=O)C(F)(F)F)c1O
3. O=C(c1ccc(O)c(C2CCCC2)c1O)C(F)(F)F
4. CCc1cc(C(=O)C(F)(F)F)c(O)cc1O [B, reference compound]
5. O=C(c1ccc(O)c(C2CCCCCCCCCCC2)c1O)C(F)(F)F
6. CC(C)Cc1c(O)ccc(C(=O)C(F)(F)F)c1O
7. CCCCCCCCCc1cc(C(=O)C(F)(F)F)c(O)cc1O

Reply:
1. -0.51
2. 0.10
3. -0.51
4. 1.30
5. -1.10
6. 0.10
7. 0.10

====

Assay Details: Acute toxicity in mice (LD50)
Condition Label: mouse, in vivo, po; death within 14 days; read-out: LD50 in the mouse, p.o.
Endpoint: LD50 at 336 h

Batch: LD50 at 336 h for all items listed.
1. CC(C)c1cc(C(=O)C(F)(F)F)c(O)c(Cc2c(O)c(C(=O)C(F)(F)F)cc(C(C)C)c2O)c1O
2. CCCCCCc1cc(C(=O)C(F)(F)F)c(O)cc1O

Reply:
["> 4000 mg/kg", "> 3200 mg/kg"]

====

Tested on: Candida albicans AT CC 10231
Assay Details: Agar diffusion test (hole-test)
Type: cell-based
Condition Label: ATCC10231, 168 h, 27° C. for 7 days, read-out: MIC, A.D.T., Candida albicans
Endpoint: MIC (µg/mL)
Give bare numbers, in µg/mL.

For orientation, consider the following solved cases.
{"Molecule": "CCc1cc(C(=O)C(F)(F)F)c(O)cc1O [B, reference compound]", "Result Unit": "µg/mL", "MIC": 1000}
{"Molecule": "O=C(c1ccc(O)cc1O)C(F)(F)F [A, 2,4-Dihydroxy-trifluoroacetophenone, reference compound]", "Result Unit": "µg/mL", "MIC": 1000}
{"Molecule": "CCCCCCCCCCc1cc(C(=O)C(F)(F)F)c(O)cc1O", "Result Unit": "µg/mL", "MIC": 1000}
{"Molecule": "O=C(c1cc(Cl)c(O)cc1O)C(F)(F)F", "Result Unit": "µg/mL", "MIC": 1000}
{"Molecule": "CCc1c(O)ccc(C(=O)C(F)(F)F)c1O [C, reference compound]", "Result Unit": "µg/mL", "MIC": 1000}
{"Molecule": "CC1CCC(c2c(O)ccc(C(=O)C(F)(F)F)c2O)CC1 (stereo not drawn)", "Result Unit": "µg/mL", "MIC": 1000}
{"Molecule": "Cc1c(O)ccc(C(=O)C(F)(F)C(F)(F)F)c1O", "Result Unit": "µg/mL", "MIC": 4000}

Here is another molecule to look at.
Ask: Consider the molecule "CC(C)Cc1c(O)ccc(C(=O)C(F)(F)F)c1O" . State its measured MIC.
Reply: 250

====

Record form. Attribute: G6PDH-inhibition Ed50, Inhibition of Incubation. Fill in for each entry.
Target System: glucose-6-phosphate-dehydrogenase
Assay Details: Inhibition of glucose-6-phosphate-dehydrogenase (G6PDH)
Assay type: biochemical
Condition Label: 37° C. for 60 minutes preincubation
Give bare numbers, in µg/mL.

For orientation, consider the following solved cases.
{"Molecule": "CC(C)c1c(O)ccc(C(=O)C(F)(F)F)c1O", "Meas Value": 9.9}
{"Molecule": "O=C(c1ccc(O)cc1O)C(F)(F)F [A, 2,4-Dihydroxy-trifluoroacetophenone, reference compound]", "Meas Value": 33}

Ask: Consider the molecule "CC(C)c1c(O)c(Cc2cc(C(=O)C(F)(F)F)c(O)c(C(C)C)c2O)cc(C(=O)C(F)(F)F)c1O" . State its measured G6PDH-inhibition Ed50, Inhibition of Incubation.
Reply: 0.13

====

Assay Details: Acute toxicity in mice (LD50)
Condition Label: mouse, in vivo, sc; death within 14 days; read-out: LD50 in the mouse, s.c.
Endpoint: LD50 at 336 h

{"Molecule": "CC(C)c1cc(C(=O)C(F)(F)F)c(O)c(Cc2c(O)c(C(=O)C(F)(F)F)cc(C(C)C)c2O)c1O [Compound Q]", "LD50 at 336 h": "> 2 mg/kg"}

Ask: Consider the molecule CCCCCCc1cc(C(=O)C(F)(F)F)c(O)cc1O [Compound E] . State its measured LD50 at 336 h.
Reply: > 4000 mg/kg

====

Test system: Aspergillus niger
Assay Details: Serial dilution test
Assay type: cell-based
Condition Label: Aspergillus niger, 168 h, 27° C. for 7 days, read-out: MIC, S.D.T., Aspergillus niger
Experimental: The inhibitory effect on bacteria and fungi was examined by the serial dilution test and the agar diffusion test (hole-test). As bacteria were used: Staphylococcus aureus SG 511, Streptococcus Aronson, Streptococcus pyogenes At CC 86 68; as fungi: Candida albicans AT CC 10231, Trichophyton mentagrophytes AT CC 9129 and Aspergillus niger. 3. Sabouraud broth: for C. alb., Trich. mnt., A. niger The age of the primary cultures is 24 hours for bacteria and 14 days for fungi. […]
Record form. Attribute: MIC. Fill in for each entry.

For orientation, consider the following solved cases.
{"Compound": "CC(C)Cc1c(O)ccc(C(=O)C(F)(F)F)c1O", "MIC": "20 µg/mL"}
{"Compound": "Cc1c(O)ccc(C(=O)C(F)(F)C(F)(F)F)c1O", "MIC": "> 80 µg/mL"}
{"Compound": "COc1ccc(C(=O)C(F)(F)F)c(OC)c1 [D, 2,4-Dimethoxy-trifluoroacetophenone, reference compound]", "MIC": "> 80 µg/mL"}
{"Compound": "O=C(c1cc(Cl)c(O)cc1O)C(F)(F)F", "MIC": "20 µg/mL"}
{"Compound": "O=C(c1ccc(O)cc1O)C(F)(F)F [A, 2,4-Dihydroxy-trifluoroacetophenone, reference compound]", "MIC": "20 µg/mL"}

Batch: MIC for all items listed.
1. CCCCCCCCCCc1cc(C(=O)C(F)(F)F)c(O)cc1O
2. CCc1cc(C(=O)C(F)(F)F)c(O)cc1O [B, reference compound]
3. CCc1c(O)ccc(C(=O)C(F)(F)F)c1O [C, reference compound]

Reply:
5 µg/mL
20 µg/mL
5 µg/mL
